target: Kinesin-like protein KIF11 (Homo sapiens, UniProt P52732); assay: Inhibition of human C-terminally His6-tagged microtubule-activated KSP motor domain ATPase activity after 30 mins by luciferase-derived luminescence assay
Sequence (P52732 whole entry, the tested form may be a part): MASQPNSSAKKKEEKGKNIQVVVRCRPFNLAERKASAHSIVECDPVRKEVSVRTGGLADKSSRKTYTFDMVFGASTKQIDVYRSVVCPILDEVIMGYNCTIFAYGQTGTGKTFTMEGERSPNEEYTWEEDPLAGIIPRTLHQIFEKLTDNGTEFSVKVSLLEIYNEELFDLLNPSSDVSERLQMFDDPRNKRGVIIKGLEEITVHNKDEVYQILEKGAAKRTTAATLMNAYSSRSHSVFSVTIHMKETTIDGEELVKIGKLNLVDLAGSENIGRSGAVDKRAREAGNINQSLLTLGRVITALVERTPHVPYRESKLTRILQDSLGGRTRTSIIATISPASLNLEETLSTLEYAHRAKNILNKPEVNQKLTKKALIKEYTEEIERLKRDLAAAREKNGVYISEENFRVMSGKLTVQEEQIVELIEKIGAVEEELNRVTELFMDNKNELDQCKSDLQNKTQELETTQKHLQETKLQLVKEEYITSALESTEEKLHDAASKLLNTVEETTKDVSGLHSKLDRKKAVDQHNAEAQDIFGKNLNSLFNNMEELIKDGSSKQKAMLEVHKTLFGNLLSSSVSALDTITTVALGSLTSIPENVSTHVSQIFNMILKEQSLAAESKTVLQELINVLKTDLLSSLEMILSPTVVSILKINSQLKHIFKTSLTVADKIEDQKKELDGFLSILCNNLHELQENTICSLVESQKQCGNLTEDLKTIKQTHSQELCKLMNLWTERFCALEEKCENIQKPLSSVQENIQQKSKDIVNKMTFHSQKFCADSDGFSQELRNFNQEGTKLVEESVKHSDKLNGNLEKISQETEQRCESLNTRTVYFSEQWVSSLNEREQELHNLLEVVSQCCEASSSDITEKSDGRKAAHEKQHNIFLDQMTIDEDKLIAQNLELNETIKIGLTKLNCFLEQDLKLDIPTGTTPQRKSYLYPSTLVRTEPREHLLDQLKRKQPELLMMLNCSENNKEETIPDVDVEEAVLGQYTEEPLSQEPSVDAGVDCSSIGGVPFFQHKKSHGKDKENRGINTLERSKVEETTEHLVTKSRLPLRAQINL
READOUT_LABEL: log10(IC50) (log10 of the value in µM)
Values are log10 of IC50 in µM.

Check out these entries, answers already filled in.
CC(C)(C)c1cccc2c1[nH]c1ccccc12: 1.15
CC(=O)c1ccc2[nH]c3cc(C)ccc3c2c1: 0.20
FC(F)c1ccc2c(c1)[nH]c1ccccc12: -0.06

Query :: Suppose we examine the molecule `CC(C)c1ccc2c(c1)[nH]c1ccccc12` ; what log10(IC50) value has been reported?
Result :: 0.18

Query :: Then `Cc1cccc2c1[nH]c1ccccc12` ?
Result :: 1.36

Query :: Then `Cc1ccc2c(c1)[nH]c1ccccc12` ?
Result :: 1.34

Query :: Then `CCCCN1C(=O)[C@@H]2Cc3c([nH]c4ccccc34)[C@@H](c3cccc(O)c3)N2C1=O` ?
Result :: 0.85

Query :: Then `CC(C)(C)c1ccc2c(c1)[nH]c1ccccc12` ?
Result :: -0.52

Query :: Then `Cc1ccc2c(c1)[nH]c1ccc(F)cc12` ?
Result :: 0.88

Query :: Then `COC(=O)c1ccc2c(c1)[nH]c1ccccc12` ?
Result :: 1.04

Query :: Then `FC(F)(F)c1cccc2c1[nH]c1ccccc12` ?
Result :: 0.52

Query :: Then `CC(C)(C)c1ccc2c(c1)[nH]c1ccc(C(=O)O)cc12` ?
Result :: 1.04

Query :: Then `O=Cc1ccc2[nH]c3ccccc3c2c1` ?
Result :: 1.23

----------
Parameter IC50: see the listing below.
target: Kinesin-like protein KIF11 (Homo sapiens); assay: Inhibition of human C-terminally His6-tagged microtubule-activated KSP motor domain ATPase activity after 30 mins by luciferase-derived luminescence assay
Record the value in µM, omitting the unit from your answer.

Check out these entries, answers already filled in.
CCc1ccc2c(c1)[nH]c1ccccc12: 2.8
c1ccc2c(c1)[nH]c1cc3c(cc12)CCCC3: 25
Cc1ccc2c(c1)[nH]c1ccc(C(F)(F)F)cc12: 11

Query :: Suppose we examine the compound `CC(C)(C)c1ccc2c(c1)[nH]c1cc(C(F)(F)F)ccc12` ; what IC50 value has been reported?
Result :: 1.4

Query :: Then `O=Cc1ccc2c(c1)[nH]c1ccccc12` ?
Result :: 13

Query :: Then `c1ccc2c(c1)[nH]c1c3c(ccc12)CCCC3` ?
Result :: 1.6

Query :: Then `CC(C)(C)c1ccc2[nH]c3ccccc3c2c1` ?
Result :: 0.24

Query :: Then `CC(C)(C)Oc1ccc2c(c1)[nH]c1ccccc12` ?
Result :: 3.2

----------
target: Kinesin-like protein KIF11 (Homo sapiens, UniProt P52732); experiment: Inhibition of human C-terminally His6-tagged microtubule-activated KSP motor domain ATPase activity after 30 mins by luciferase-derived luminescence assay
READOUT_LABEL: IC50 (nM)
Record the value in nM, omitting the unit from your answer.

Check out these entries, answers already filled in.
FC(F)(F)c1ccc2[nH]c3ccccc3c2c1: 950
Cc1ccc2[nH]c3ccc(C(F)(F)F)cc3c2c1: 8800
FC(F)(F)Oc1ccc2c(c1)[nH]c1ccccc12: 510
COC(=O)c1ccc2[nH]c3cc(C(C)(C)C)ccc3c2c1: 390
FC(F)(F)c1ccc2c(c1)[nH]c1ccccc12: 260
c1ccc2c(c1)ccc1c3ccccc3[nH]c21: 4600

Query :: Suppose we examine the compound `Cn1c2ccccc2c2ccc(C(F)(F)F)cc21` ; what IC50 value has been reported?
Result :: 5600
